system-name: hSARM1 (Homo sapiens)
Sequence (Q6SZW1 28-724): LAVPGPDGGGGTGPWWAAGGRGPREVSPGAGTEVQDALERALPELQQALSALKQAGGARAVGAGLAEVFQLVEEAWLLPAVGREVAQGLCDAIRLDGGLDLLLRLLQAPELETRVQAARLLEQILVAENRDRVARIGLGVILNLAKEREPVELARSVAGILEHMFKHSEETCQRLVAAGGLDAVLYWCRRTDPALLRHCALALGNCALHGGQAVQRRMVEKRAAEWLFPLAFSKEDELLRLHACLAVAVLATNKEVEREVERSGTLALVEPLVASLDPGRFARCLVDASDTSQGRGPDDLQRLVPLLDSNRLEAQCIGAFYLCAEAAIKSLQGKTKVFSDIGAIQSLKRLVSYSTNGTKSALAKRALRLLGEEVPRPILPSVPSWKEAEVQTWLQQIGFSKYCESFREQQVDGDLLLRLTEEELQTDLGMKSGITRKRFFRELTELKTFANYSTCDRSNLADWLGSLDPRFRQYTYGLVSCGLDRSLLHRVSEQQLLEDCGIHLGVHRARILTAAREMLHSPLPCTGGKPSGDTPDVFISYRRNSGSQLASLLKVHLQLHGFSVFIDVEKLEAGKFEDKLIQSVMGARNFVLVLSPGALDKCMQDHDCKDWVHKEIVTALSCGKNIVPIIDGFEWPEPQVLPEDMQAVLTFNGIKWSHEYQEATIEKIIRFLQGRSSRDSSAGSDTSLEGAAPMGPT
measurement-protocol: Human SARM1 activity measurement in HEK293 cells transiently transfected with ΔN-hSARM1 (PC6 fluorescent probe)
Assay type: cell-based
Parameters: expressed in transfected cells; host or cells: HEK293, pcDNA3 expression vector
experimental-parameters: inhibition rate; compound 30 µM; PC6 50 µM; HEK293 cells expressing ΔN-hSARM1; approximately 48 hours from transfection; read-out: Evaluation on hSARM1 inhibitory
Consider the following compounds; for each one, report its inhibition at 30 µM.

Recorded result, O=C(NCc1ccc(NC(=O)c2ccc(F)cc2)nc1)c1cccnc1 [Compound 117] , inhibition at 30 µM: > 75%

Recorded result, O=C(NCCOCCOc1ccc(CNC(=O)c2cccnc2)cc1)c1cccnc1 [compound 54] , inhibition at 30 µM: > 75%

Recorded result, C#CCOCCOCCNC(=O)c1cccnc1 [compound 11] , inhibition at 30 µM: > 10%

Recorded result, O=C(/C=C/c1cccnc1)NCCOCCOc1ccc(CNC(=O)c2cccnc2)cc1 [compound 55] , inhibition at 30 µM: > 75%

Recorded result, O=C(NCCOCCOc1ccccc1)c1cccnc1 [compound 98] , inhibition at 30 µM: > 10%

Recorded result, O=C(NCc1cccc(CNC(=O)c2cccnc2)n1)c1ccncc1 [Compound 151] , inhibition at 30 µM: > 25%

Recorded result, O=C(NCc1ccc(NC(=O)c2ccc3ncccc3c2)nc1)c1cccnc1 [Compound 122] , inhibition at 30 µM: > 75%

Recorded result, NCCOCCOCCCCCCCCNC(=O)c1cccnc1 [compound 97] , inhibition at 30 µM: > 75%

Recorded result, C#CCCOc1ccc(C(=O)NCCCCCCNC(=O)c2cccnc2)cc1 [compound 68] , inhibition at 30 µM: > 75%

Recorded result, O=C(NCc1ccc(NS(=O)(=O)c2ccccc2)nc1)c1cccnc1 [compound 79] , inhibition at 30 µM: > 10%

Recorded result, CC(C)C(=O)Nc1ccc(CNC(=O)c2cccnc2)cn1 [compound 72] , inhibition at 30 µM: > 50%

Recorded result, Cc1ccccc1C(=O)Nc1ccc(CNC(=O)c2cccnc2)cn1 [Compound 130] , inhibition at 30 µM: > 75%

Recorded result, O=C(Cc1ccccc1C(F)(F)F)Nc1ccc(CNC(=O)c2cccnc2)cn1 [Compound 155] , inhibition at 30 µM: > 75%

Recorded result, O=C(COc1ccc(OCc2ccccc2)cc1)Nc1ccc(CNC(=O)c2cccnc2)cn1 [Compound 178] , inhibition at 30 µM: > 75%

Recorded result, O=C(NCc1cccc(CNC(=O)c2cccnc2)n1)c1cccnc1 [Compound 150] , inhibition at 30 µM: > 25%

Recorded result, O=C(NCc1ccc(NC(=O)c2ccc3ccccc3c2)nc1)c1cccnc1 [Compound 127] , inhibition at 30 µM: > 75%

Recorded result, C#CCOc1ccc(C(=O)Nc2ccc(CNC(=O)c3cccnc3)cn2)cc1 [compound 91] , inhibition at 30 µM: > 50%

Recorded result, [N-]=[N+]=NCc1cccc(CNC(=O)c2cccnc2)n1 [compound 90] , inhibition at 30 µM: > 10%

Recorded result, COCOc1cccc(OCCCNC(=O)/C=C/c2cccnc2)c1 [compound 24] , inhibition at 30 µM: > 75%
